B1: Ribonuclease, P00648 (parent)
chain: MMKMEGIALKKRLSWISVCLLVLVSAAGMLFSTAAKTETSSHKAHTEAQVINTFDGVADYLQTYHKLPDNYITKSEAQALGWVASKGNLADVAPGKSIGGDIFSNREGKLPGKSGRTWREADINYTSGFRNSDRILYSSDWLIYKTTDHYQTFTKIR

Variants of: B1
assay_context: Bacillus amyloliquefaciens; pH 6.3; 25 °C; Urea; Fluorescence; MES 450 mM; reversible: yes (100%); structure 1BNI; whole UniProt chain shown
measured_endpoint: unfolding free energy (kcal/mol)
// units = kcal/mol; emit number, no label

Entry `I143V` : reported unfolding free energy = ?
8.68

Would you mind telling me what unfolding free energy value was observed for `I135V` ?
7.95

# get_value(readout='unfolding free energy', item= `I135A` )
5.34

Others:
Which unfolding free energy is reported for this variant? `I143A`
6.29

Would you mind telling me what unfolding free energy value was observed for `L61A` ?
4.77

Every entry's value here was drawn from FireProtDB (doi:10.1021/bi00437a058).
